- experimental_system: ABHD6 (Homo sapiens)
- Construct: Proteomes (human prefrontal cortex or cell membrane fractions); endogenous in cells; human prefrontal cortex
- Sequence (Q9BV23 whole entry): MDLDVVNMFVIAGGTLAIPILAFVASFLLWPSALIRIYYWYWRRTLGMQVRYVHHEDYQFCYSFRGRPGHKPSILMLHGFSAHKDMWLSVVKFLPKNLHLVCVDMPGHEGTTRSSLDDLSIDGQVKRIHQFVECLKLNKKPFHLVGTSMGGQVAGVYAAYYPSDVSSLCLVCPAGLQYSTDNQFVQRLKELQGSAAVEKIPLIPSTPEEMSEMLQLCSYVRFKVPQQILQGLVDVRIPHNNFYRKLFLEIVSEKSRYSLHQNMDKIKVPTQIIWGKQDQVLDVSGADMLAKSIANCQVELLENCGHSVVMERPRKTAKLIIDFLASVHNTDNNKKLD
- experimental_details: In vitro competitive activity-based protein profiling (human), ABHD6
- Type: biochemical
- particulars: human PC3
IC50 by entry:

The examples below pair each entry with its known result.
compound="CC1(C(=O)O)CN(c2cc(C(F)(F)F)ccc2CN2CCN(C(=O)OC(C(F)(F)F)C(F)(F)F)CC2)CCO1 (stereo not drawn)" parameter_measured=IC50 measured_value="1 to 10 µM"
compound=CCCC1(C(=O)O)CCN(c2cc(CN3CCN(C(=O)OC(C(F)(F)F)C(F)(F)F)CC3)cc(C(F)(F)F)c2)CC1 parameter_measured=IC50 measured_value="0.1 to 1 µM"
compound=O=C(O)Cn1cc(-c2cc(C(F)(F)F)ccc2CN2CCN(C(=O)OC(C(F)(F)F)C(F)(F)F)CC2)cn1 parameter_measured=IC50 measured_value="1 to 10 µM"
compound=O=C(O)CN1CCC2(C1)CN(c1cc(C(F)(F)F)ccc1CN1CCN(C(=O)OC(C(F)(F)F)C(F)(F)F)CC1)C2 parameter_measured=IC50 measured_value="1 to 10 µM"
compound=O=C(O)[C@H]1CCCN(c2cc(CN3CCN(C(=O)OC(C(F)(F)F)C(F)(F)F)CC3)cc(C(F)(F)F)c2)C1 parameter_measured=IC50 measured_value="0.1 to 1 µM"

Record O=C(OC(C(F)(F)F)C(F)(F)F)N1CCN(Cc2ccc(F)cc2C2(C(=O)O)CCCC2)CC1 . Reported IC50: 1 to 10 µM

// recorded IC50 for O=C(O)CN1CCCC12CN(c1cc(C(F)(F)F)ccc1CN1CCN(C(=O)OC(C(F)(F)F)C(F)(F)F)CC1)C2 : 1 to 10 µM

compound O=C(O)CN1CCC2(CCN(c3cc(C(F)(F)F)ccc3CN3CCN(C(=O)OC(C(F)(F)F)C(F)(F)F)CC3)CC2)C1 , IC50 observed: 1 to 10 µM

So, O=C(O)CN1CCC2(CC1)CCN(c1cc(C(F)(F)F)ccc1CN1CCN(C(=O)OC(C(F)(F)F)C(F)(F)F)CC1)C2 ? Its IC50 was 1 to 10 µM

The recorded IC50 for entry O=C(O)CC1CCN(c2cc(C(F)(F)F)ccc2CN2CCN(C(=O)OC(C(F)(F)F)C(F)(F)F)CC2)CC1 equals 1 to 10 µM

According to the records, this compound O=C(O)CN1CC2(CCN(c3cc(C(F)(F)F)ccc3CN3CCN(C(=O)OC(C(F)(F)F)C(F)(F)F)CC3)C2)C1 displays IC50 of 1 to 10 µM

The compound listed as O=C(O)CN1CCC2(C1)CN(c1cc(Cl)ccc1CN1CCN(C(=O)OC(C(F)(F)F)C(F)(F)F)CC1)C2 shows IC50 equal to 1 to 10 µM

====

- experimental_system: ABHD6 (Mus musculus)
- Construct: Proteomes (mouse brain membrane fraction or cell lysates); from tissue; host or cells: mouse brain membrane fraction or cell lysates
- experimental_details: In vitro competitive activity-based protein profiling (mouse), ABHD6
- Type: biochemical
- particulars: 1 μM inhibitor, mouse brain membrane fraction or cell lysates; read-out: ABHD6 % inh. 1 μM (mouse)
parameter_measured: inhibition at 1 µM

Please review the following examples before continuing.
compound=O=C(OC(C(F)(F)F)C(F)(F)F)N1CCN(Cc2cc(Cl)cc(C3(C(=O)O)CCCC3)c2)CC1 parameter_measured="inhibition at 1 µM" measured_value="≥ 75%"
compound=O=C(O)CC1CCN(c2cc(C(F)(F)F)ccc2CN2CCN(C(=O)OC(C(F)(F)F)C(F)(F)F)CC2)CC1 parameter_measured="inhibition at 1 µM" measured_value="≥ 75%"

Form field inhibition at 1 µM for item CN1CCN(c2cc(C(F)(F)F)ccc2CN2CCN(C(=O)OC(C(F)(F)F)C(F)(F)F)CC2)CC1C(=O)O (stereo not drawn) on ABHD6 (Mus musculus): 0 to 25%

Known value: ABHD6 (Mus musculus) inhibition at 1 µM of the compound O=C(OC(C(F)(F)F)C(F)(F)F)N1CCN(Cc2ccc(C(F)F)cc2C2(C(=O)O)CCCC2)CC1 equals 0 to 25%

Test item O=C(O)Cn1cc(-c2cc(C(F)(F)F)ccc2CN2CCN(C(=O)OC(C(F)(F)F)C(F)(F)F)CC2)cn1 ; ABHD6 (Mus musculus); reported inhibition at 1 µM was ≥ 75%

Form field inhibition at 1 µM for item O=C(OC(C(F)(F)F)C(F)(F)F)N1CCN(Cc2ccc(C(F)(F)F)c(C3(C(=O)O)CCCC3)c2)CC1 on ABHD6 (Mus musculus): ≥ 75%

====

- experimental_system: MAGL (Mus musculus)
- Construct: Proteomes (mouse brain membrane fraction or cell lysates); from tissue; host or cells: mouse brain membrane fraction or cell lysates
- Sequence (O35678 whole entry): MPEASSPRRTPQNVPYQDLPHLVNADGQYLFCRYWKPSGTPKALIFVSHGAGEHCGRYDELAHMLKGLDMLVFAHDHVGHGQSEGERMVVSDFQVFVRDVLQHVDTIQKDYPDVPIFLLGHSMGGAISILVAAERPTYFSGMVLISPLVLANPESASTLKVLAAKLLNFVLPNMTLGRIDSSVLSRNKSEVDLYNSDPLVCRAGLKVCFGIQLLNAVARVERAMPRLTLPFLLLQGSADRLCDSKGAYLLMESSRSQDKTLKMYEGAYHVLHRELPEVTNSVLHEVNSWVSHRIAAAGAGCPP
- experimental_details: Mouse brain proteomes from inhibitor treated mice, MAGL inhibition
- Type: in vivo
- particulars: 5 mg/kg oral gavage, C57Bl/6J mouse brain, 4 h following administration; read-out: MAGL % inh. 5 mg/kg (mouse)
parameter_measured: inhibition at 5 mg/kg

The examples below pair each entry with its known result.
compound="O=C(O)Cn1ccc(-c2cc(Cl)ccc2CN2CCN(C(=O)OC(C(F)(F)F)C(F)(F)F)CC2)n1 [Example 12]" parameter_measured="inhibition at 5 mg/kg" measured_value="0 to 25%"
compound="O=C(O)CN1CC2(CCN(c3cc(C(F)(F)F)ccc3CN3CCN(C(=O)OC(C(F)(F)F)C(F)(F)F)CC3)CC2)C1 [Example 21]" parameter_measured="inhibition at 5 mg/kg" measured_value="0 to 25%"

The compound identified as O=C(O)Cn1cc(-c2cc(C(F)(F)F)ccc2CN2CCN(C(=O)OC(C(F)(F)F)C(F)(F)F)CC2)cn1 [Example 6] registered its inhibition at 5 mg/kg at 0 to 25%

====

- experimental_system: ABHD6 (Mus musculus, UniProt Q8R2Y0)
- Construct: Proteomes (mouse brain membrane fraction or cell lysates); from tissue; host or cells: mouse brain membrane fraction or cell lysates
- Sequence (Q8R2Y0 whole entry): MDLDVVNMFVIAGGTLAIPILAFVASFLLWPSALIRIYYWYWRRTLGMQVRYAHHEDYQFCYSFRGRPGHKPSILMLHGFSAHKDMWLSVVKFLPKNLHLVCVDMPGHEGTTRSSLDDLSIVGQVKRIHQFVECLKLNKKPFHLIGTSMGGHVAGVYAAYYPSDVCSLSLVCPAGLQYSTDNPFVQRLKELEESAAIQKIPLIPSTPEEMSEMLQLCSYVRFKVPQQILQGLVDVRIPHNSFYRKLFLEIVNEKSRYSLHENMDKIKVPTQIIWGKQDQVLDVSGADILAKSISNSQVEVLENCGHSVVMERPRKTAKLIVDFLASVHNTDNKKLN
- experimental_details: In vitro competitive activity-based protein profiling (mouse), ABHD6
- Type: biochemical
- particulars: 1 μM inhibitor, mouse brain membrane fraction or cell lysates; read-out: ABHD6 % inh. 1 μM (mouse)
parameter_measured: inhibition at 1 µM

// solved cases for inhibition at 1 µM follow
compound="O=C(OC(C(F)(F)F)C(F)(F)F)N1CCN(Cc2ccc(C(F)(F)F)cc2C2(C(=O)O)CCCC2)CC1 [Example 4]" measured_value="0 to 25%"
compound="O=C(O)[C@H]1CCCN(c2cc(CN3CCN(C(=O)OC(C(F)(F)F)C(F)(F)F)CC3)cc(C(F)(F)F)c2)C1 [Example 81]" measured_value="≥ 75%"
compound="O=C(O)CN1CCN(c2cc(C(F)(F)F)ccc2CN2CCN(C(=O)OC(C(F)(F)F)C(F)(F)F)CC2)CC1 [Example 42]" measured_value="0 to 25%"
compound="CCCC1(C(=O)O)CCN(c2cc(CN3CCN(C(=O)OC(C(F)(F)F)C(F)(F)F)CC3)cc(C(F)(F)F)c2)CC1 [Example 52]" measured_value="≥ 75%"
compound="O=C(O)C1CCN(C(=O)c2cc(CN3CCN(C(=O)OC(C(F)(F)F)C(F)(F)F)CC3)ccc2C(F)(F)F)CC1 [Example 46]" measured_value="0 to 25%"

Lab note: measured inhibition at 1 µM of O=C(O)[C@H]1CCCN(c2cc(C(F)(F)F)ccc2CN2CCN(C(=O)OC(C(F)(F)F)C(F)(F)F)CC2)C1 [Example 80] was 25 to 50%

Looking up O=C(O)CN1CC2(CCN(c3cc(C(F)(F)F)ccc3CN3CCN(C(=O)OC(C(F)(F)F)C(F)(F)F)CC3)C2)C1 [Example 22] , I see its inhibition at 1 µM listed as 0 to 25%

Value of measured inhibition at 1 µM for the entry O=C(O)CN1CC2CC1CN2c1cc(C(F)(F)F)ccc1CN1CCN(C(=O)OC(C(F)(F)F)C(F)(F)F)CC1 (centres unmarked) [Example 25] : 0 to 25%
